# Tested on: MS2 coat protein
# PROCEDURE TEXT: apparent KD of MS2 coat protein; designed switch direction (-1 OFF switch, 1 ON switch): -1; higher = weaker reporter binding
# CONDITION INFO: input ligand: FMN 200 uM
MEASURED ATTRIBUTE: apparent KD of MS2 coat protein (nM)
Numbers only, in nM.

1. ACGCCAGGAGGAUAUGCAAUAAGUAACAUGAGGAUCACCCAUGUUCGGGCGAUCCUCGUGGCAGAAGGCCUAGCCG [Attira] (Eterna round: R97, puzzle: Exclusion 5)
95.5

Provide reported apparent KD of MS2 coat protein for each item, in the same order as listed.
1. AUUAAUUGUCAGAUGGGUGACAUGAGGAUCACCCAUGUCACAAGCUUUUUGUUCGUCUUAUAAUUAACCCAUCUGAC [Stov1/11-B2] (Eterna round: R97, puzzle: Sensor, turn-off variant 1)
2. UAUUAGCAAGCGAGAUCCCACAUGAGGAUCACCCAUGUAAGCAUCCAGAAUUACUGGGUGCAAAAGCUCGUCUUAUA [Winner reversed engineered 5] (Eterna round: R97, puzzle: Sensor, turn-off variant 1)

[13.8, 29.7]

====

# Test system: K4 kissing-loop RNA reporter;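 also: bound reporter read as fluorescence of individual clusters on recovered sequencing chips by microscopy, with normalized cluster intensities fitted with a binding model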
# PROCEDURE TEXT: apparent KD of K4 kissing-loop reporter; higher = weaker reporter binding
# CONDITION INFO: Eterna round: R107; input ligand: arginine 13.2 mM
MEASURED ATTRIBUTE: apparent KD of K4 kissing-loop reporter (nM)
Give bare numbers, in nM.

1) UCGCUCGAGUAAGGAUAUCAAUAUCAAAGGUCGUAGUGAUGUUAUACCAGGCCAAUUUGGCGGUAGUGAGAAGGUACUAGCAGUU [theeternabot_sameState_KL_FMN_B_38]
294
2) GGAUAGGACUGAGGAUAUGGGCUAGGCAAGAAUAACUUGUCUAGCAAAUCCAUGAGGAGUGAUGUUCCAGAAGGCGGUCCUAUCG [FmnBX 1 U10+G76]
127

Quick check: apparent KD of K4 kissing-loop reporter of UAAUAAAUUCCAGCGAUAUCGCUCUUCGAAGGAGCGGGCGAAAGUCCAGGUAGGUCGCGGAGAGUGAUGUUCUUUGCGGCGCUGG [whbob_Ex_Arginine_A_2t134] ?
315

====

# System: MS2 coat protein
# PROCEDURE TEXT: apparent KD of MS2 coat protein; designed switch direction (-1 OFF switch, 1 ON switch): -1; higher = weaker reporter binding
# CONDITION INFO: input ligand: microRNA oligo, concentration not stated
MEASURED ATTRIBUTE: apparent KD of MS2 coat protein (µM)
One number for each entry, in µM.

Some sequences with recorded apparent KD of MS2 coat protein:
1. ACAUGAGGAUCACCCAUGUGAACGAAAAGGCUCAUGUAGAGUGAGGAUAUGUGAGACGAACGAGAACAGAAGGCACAAGACAGG [Deportation 1 - Jieux - Exclusion NG 3] (Eterna round: R96, puzzle: Exclusion NG 3)
0.0195
2. CUUUUGUGAGGAUAUUAGUAGUAAAUAAAUAAAAUUACUACUUAGAAGGCACAUGAGGAUCACCCAUGUUCCUC [salish99_ex4_r3_043] (Eterna round: R96, puzzle: Exclusion 4)
0.0258
3. GUCAGCUCGUGAGGAUAUGAACAUGAGGAUCACCCAUGUAAGAUCAAGCUGCUUCGGCAGCAAGUUCAGAAGGUACGAGCUGAC [ENG2/10-C1] (Eterna round: R96, puzzle: Exclusion NG 2)
0.0775

I need apparent KD of MS2 coat protein for every entry listed below, if you could help.
1. AGCGAAUAAGCAGGAUAUGAGAAUAGAUAGAGCUCAGAAGGGCUACAUGAGGAUCACCCAUGUAAAGUCUUGAGGCUGCGUGGU [Prohibition 13 - Jieux - Exclusion NG 1] (Eterna round: R96, puzzle: Exclusion NG 1)
2. ACAUGAGGAUCACCCAUGUCUGGCUGGUCCGCUCCGGCUGUUGAGGAUAUAGCUCGGUGUCCGCGCUAGAAGGUGAGGGCUGGC [Aenatbe mod 34] (Eterna round: R96, puzzle: Exclusion NG 3)
3. CAGGUGUUAGGAUAUCGGAGAUCGAGACCGACGGGAUGAGCCGAGAAGGAACAUGAGGAUCACCCAUGUAGGUG [JR_Exclu4_Sub034] (Eterna round: R96, puzzle: Exclusion 4)
4. AGUACUAACACGGGUGUGUUAGUACAAUAAGCUUGUGAAACAUGAGGAUCACCCAUGUCCUCAUAAGCUCGUCUUAU [salish99_TOv2_r3_075] (Eterna round: R96, puzzle: Sensor v3, turn-off variant 2)
5. CUGCUCCGUGUAGGAUAUGCAUAUUCCCAUUAUGCAGAAGGACAUGAGGAUCACCCAUGUAUGUUAUUAUCAUGUGUUGCAUGC [Design 10] (Eterna round: R96, puzzle: Exclusion NG 1)
6. CAGUACUGAGGAUAUACAUGAGGAUCACCCAUGUCUUAAAAGUAGGAUACUACUAUUAGUAGAAGGCAGUACUG [Fiskers Ex 3 828 mod 24] (Eterna round: R96, puzzle: Exclusion 3)

0.0144
0.0195
0.304
0.503
0.0352
0.0123

Look up apparent KD of MS2 coat protein for the entries below, preserving their order.
1. CGCCGAGUGUUAGGAUAUCACAAGCAUAAGCGGUGAGAAGGAACAUGAGGAUCACCCAUGUACUGUCCCAUCGGGACAGGUUUC [Ribeon] (Eterna round: R96, puzzle: Exclusion NG 1)
2. UGUUGUCGCGUAGGAUAUGGCCAACAGGCCCUAGGAUAUGCGAAAGCAGAAGGAGCGCCAACAGGCGAGAAGGACGGGACAACU [pwkr exNG2 2xF7 2xFMN.17] (Eterna round: R96, puzzle: Exclusion NG 2)
3. ACAUGAGGAUCACCCAUGUGACCAUGAUGGCUGAUGUAGAGCUAGGAUAUGAGUGAAUAUCUAUCUCAGAAGGAGCUUGACUGG [Deportation 48 - Jieux - Exclusion NG 3] (Eterna round: R96, puzzle: Exclusion NG 3)
4. AAACGGGUGUCCUCGUUUUCAACAUGAGGAUCACCCAUGUUCGAGGAUAUCCGAUAAGCUCUUCAGGAGAAGGCGAACAUAAAA [Eninenat] (Eterna round: R96, puzzle: Exclusion NG 3)
5. UUCCUCUCUUCUCUGUCUCACAUGAGGAUCACCCAUGUAACAUAGGAUAUGCUUGGUAUUUAAAUGCAGAAGGAUGUUAGUAUU [JR_ExcNG3_Sub082] (Eterna round: R96, puzzle: Exclusion NG 3)
6. GCGCAAACGCCAAAAGGCGAAACAACAUGAGGAUCACCCAUGUAGGAUAUCGAUUGCUUUGCAGUCGAGAAGGGCAUAAUGCGC [JL ENG3 3.80 Mod 4] (Eterna round: R96, puzzle: Exclusion NG 3)
7. AAUUUCGCGGCCCGAUGACUGCGUACUGACAGUGAGCUCACAUGAGGAUCACCCAUGUUUUUUGCUCGUAAAUCAGA [Quarat] (Eterna round: R96, puzzle: Sensor v2, turn-off variant 2)
8. GCACGGAGUGUAGGAUAUCUGUGCGAUUAGCUCAGAGAAGGACACAUGAGGAUCACCCAUGUGUUCCACGGAAACGUUCCGUGC [Eli exng1 - 049] (Eterna round: R96, puzzle: Exclusion NG 1)

0.054
0.0136
0.0154
0.0321
0.0224
0.013
0.0123
0.00793

Which apparent KD of MS2 coat protein value belongs to AUCGUGCAGCAAAGCUGUACGAGUACAUGAGGAUCACCCAUGUAGGAUAUGGUACGCUUUGCGUGCUAGAAGGAUAUGUGUAGG [Mat - Exclusion NG 3 - Mod of JL - D83] (Eterna round: R96, puzzle: Exclusion NG 3) ?
0.031

====

# System: MS2 coat protein
# PROCEDURE TEXT: apparent KD of MS2 coat protein; designed switch direction (-1 OFF switch, 1 ON switch): -1; higher = weaker reporter binding
# CONDITION INFO: input ligand: microRNA oligo, concentration not stated
Hi there, I'd appreciate the recorded apparent KD of MS2 coat protein for every entry that follows.
Enter the number, and then the unit.

Kindly give each listed record's apparent KD of MS2 coat protein.
1. UGAUCUAGCGGAGGAUAUACAUGAGGAUCACCCAUGUAGAAUCCAUGACCGUAGUCGUGGAUCGUGUAGAAGGCCGCUAGAUCU [JL ENG2 3.71] (Eterna round: R96, puzzle: Exclusion NG 2)
2. UAUAUAUAGUAAGGAUAUGUAAUUAUUUUAUAAACAGAAGGUACUGACAUGAGGAUCACCCAUGUUUUAGUGUGGGCAUGUAGA [JMF's solution 5] (Eterna round: R96, puzzle: Exclusion NG 1)
3. ACCAAUGCAGGAUAUACAUGAGGAUCACCCAUGUAUAACCUACAUAGAUGAUCAUCAUGUAGAAGGGCAAUGGA [EX3 229: Super Stable 29] (Eterna round: R96, puzzle: Exclusion 3)
4. GCACGGAGUGUAGGAUAUUAGUGCGAUUAGCACUGAGAAGGACAUGAGGAUCACCCAUGUUCCUCUAAAAUUAGCCUUCCGUGC [Eli exng1 - 036] (Eterna round: R96, puzzle: Exclusion NG 1)
5. AAAACAAACGAAGGAUAUGCAACCCGGCGGUACGCAGAAGGUCGAAAGAUUUUCAUUCUACAUGAGGAUCACCCAUGUACGGGC [Leange] (Eterna round: R96, puzzle: Exclusion NG 1)

["9 nM", "65.7 nM", "11.1 nM", "10.7 nM", "39.7 nM"]
